Test system: Human Neural Stem Cells
Test: MKC-231 in combination with an AMPA agonist, neuronal differentiation of human neural stem cells
Format: cell-based
Details: Homo sapiens, Neural stem cell, read-out: EC50 neuronal differentiation, MKC-231 in the presence of a fixed concentration AMPA
EXPERIMENTAL ENDPOINT: pEC50
Bear in mind: pEC50 is minus log10 of a mol/L concentration; give just that figure.

Challenge: Look at this compound and give its reported pEC50. Cc1oc2nc3c(c(NC(=O)CN4CCCC4=O)c2c1C)CCCC3 [MKC-231]
Response given: 6.66

Where do these numbers come from? They come from patent US20090088449A1.
